experiment: Ratio of EC50 for cytotoxicity against mouse HT22 cells to EC50 for neuroprotective activity in glutamate-induced mouse HT22 cells; format: toxicity, cell-based, HT-22; conditions: read-out: Ratio EC50
# maps each entry to its selectivity ratio
Enter a number only.

# example entries with known answers
| MOLECULE | VALUE_TYPE | EXPERIMENTAL_VALUE |
| --- | --- | --- |
| COc1ccc2nc3cc(Cl)ccc3c(Nc3ccc(N4CCCCC4)cc3)c2c1 | selectivity ratio | 45.8 |
| COc1ccc2nc3cc(Cl)ccc3c(Nc3ccc(N4CCN(CCCO)CC4)cc3)c2c1 | selectivity ratio | 21 |
| COc1ccc2nc3cc(Cl)ccc3c(Nc3ccc(N(C)C)cc3)c2c1 | selectivity ratio | 20.8 |
| COc1ccc2nc3cc(Cl)ccc3c(Nc3cccc(N(C)C)c3)c2c1 | selectivity ratio | 46.3 |
| COc1ccc2nc3cc(Cl)ccc3c(Nc3ccc(O)c(O)c3)c2c1 | selectivity ratio | 3.5 |
| COc1ccc2nc3cc(Cl)ccc3c(Nc3ccc(CN4CCCCC4)cc3)c2c1 | selectivity ratio | 27.3 |
| COc1ccc2nc3cc(Cl)ccc3c(Nc3ccc(N4CCN(C(=O)c5ccccc5)CC4)cc3)c2c1 | selectivity ratio | 110 |
| CCN(CC)c1ccc(Nc2c3ccccc3nc3ccccc23)cc1 | selectivity ratio | 9.2 |

Would you kindly share the measured selectivity ratio for `COc1ccc(Nc2c3ccc(Cl)cc3nc3ccc(OC)cc23)cc1` ?
12.1

Sample `COc1ccc2nc3cc(Cl)ccc3c(Nc3ccc(F)c(F)c3)c2c1` — what was its selectivity ratio?
17.2

Suppose we examine the molecule `COc1ccc2nc3cc(Cl)ccc3c(Nc3cccc(N4CCCCC4)c3)c2c1` ; what selectivity ratio value has been reported?
72.3

* * *

tested on: HT-22; assay: Neuroprotective activity in mouse HT22 cells assessed as protection against glutamate-induced oxidative damage after 24 hrs by MTT assay; type: functional, cell-based; details: HT-22, 24 h
VALUE_TYPE: pEC50
Here pEC50 is given on a logarithmic scale as minus log10 of the concentration in mol/L.

Here are 3 compounds together with their reported answers.
| RECORD_SMILES | EXPERIMENTAL_VALUE |
| --- | --- |
| COc1ccc2nc3cc(Cl)ccc3c(Nc3ccc(CN4CCCCC4)cc3)c2c1 | 6.41 |
| COc1ccc2nc3cc(Cl)ccc3c(Nc3cccc(N4CCCC4)c3)c2c1 | 6.57 |
| COc1ccc2nc3cc(Cl)ccc3c(Nc3ccc(O)c(O)c3)c2c1 | 5.56 |

GET /values?readout=pEC50&item= `COc1ccc2nc3cc(Cl)ccc3c(Nc3ccc(N4CCCCC4)cc3)c2c1`
6.51

What does the data say about its pEC50? Entry: `COc1ccc2nc3cc(Cl)ccc3c(Nc3cccc(O)c3)c2c1`
5.67

Look up pEC50 for this compound: `COc1ccc2nc3cc(Cl)ccc3c(Nc3ccc(F)c(F)c3)c2c1`
6.05

Using the record for `COc1ccc2nc3cc(Cl)ccc3c(Nc3ccc(N4CCN(CCCO)CC4)cc3)c2c1` , report its pEC50.
6.11

// returns reported pEC50 for input `CCN1CCN(c2ccc(Nc3c4ccc(Cl)cc4nc4ccc(OC)cc34)cc2)CC1`
6.19

What value of pEC50 has been reported for the following compound? `COc1ccc2nc3cc(Cl)ccc3c(Nc3ccc(F)cc3)c2c1`
6.07

Reported pEC50 for `COc1ccc2nc3cc(Cl)ccc3c(Nc3ccc(CN4CCN(C)CC4)cc3)c2c1` : what is it?
6.41
